Target: T1, human CD19 exon1-3-his protein (human, UniProt P15391 20-186, limits assumed)
T1 construct: made in HEK293E cells; also called membrane-distal end; not shown: His tag
T1 sequence (looked up): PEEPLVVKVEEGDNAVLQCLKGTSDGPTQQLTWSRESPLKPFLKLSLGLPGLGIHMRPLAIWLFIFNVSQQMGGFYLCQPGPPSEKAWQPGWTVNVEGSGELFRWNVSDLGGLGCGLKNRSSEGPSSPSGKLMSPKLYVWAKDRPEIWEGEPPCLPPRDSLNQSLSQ
Assay: ELISA, coated at 2 ug/mL

[
  {
    "binder": "F3.121.4-L2H2 (antibody, mouse IgG1, kappa, V domains shown, murine IgG1 constant regions; also called humanized antibody of F3.121.4) VH: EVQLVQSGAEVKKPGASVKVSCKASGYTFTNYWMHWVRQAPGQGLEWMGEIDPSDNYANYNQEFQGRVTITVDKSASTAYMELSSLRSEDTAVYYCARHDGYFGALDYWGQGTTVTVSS VL: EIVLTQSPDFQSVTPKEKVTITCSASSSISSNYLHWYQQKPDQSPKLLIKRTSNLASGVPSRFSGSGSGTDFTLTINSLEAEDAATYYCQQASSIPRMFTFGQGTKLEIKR",
    "binding result": "no binding"
  },
  {
    "binder": "F4.82.11 (antibody, human IgG1, V domains shown, human-murine chimeric antibody, human IgG1) VH: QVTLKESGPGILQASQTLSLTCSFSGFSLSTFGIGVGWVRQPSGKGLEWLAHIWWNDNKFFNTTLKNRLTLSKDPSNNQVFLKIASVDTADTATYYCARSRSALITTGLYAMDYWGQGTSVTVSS VL: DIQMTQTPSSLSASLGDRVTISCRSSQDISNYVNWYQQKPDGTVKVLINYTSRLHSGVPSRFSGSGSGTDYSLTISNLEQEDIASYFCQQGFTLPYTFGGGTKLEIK",
    "binding result": "no binding"
  },
  {
    "binder": "F6.2.9 (antibody, human IgG1, V domains shown, human-murine chimeric antibody, human IgG1) VH: QVQLQQSGAELVKPGASVKISCKASGYAFSSYWMNWVKQRPGKGLEWIGQIYPGDGDTNYNGKFKGKATLTADKSSSTGYMQLSSLTSEDSAVYFCARSRITSVVDWYFDVWGTGTTVTVSS VL: QIVLSQSPAILSASPGEKVTMTCRASSSVSYMHWYQQKPGSSPKPWIYATSNLASGVPARFSGSGSGTSYSLTISRVEAEDAATYYCQQWSSNPPTFGAGTKLELK",
    "binding result": "no binding"
  }
]

Where do these numbers come from? They come from patent US20250042994A1.
